- System: reverse transcriptase (RT) (HIV-1 M:B_HXB2R, UniProt P04585)
- Condition Notes: read-out: apparent Ki (recalculated, corrected for DTT); recalculated from literature
pKi: −log10 of the molar value.
Quantity: pKi

{"Compound": "C[S+](CC[C@H](N)C(=O)O)C[C@H]1O[C@@H](n2cnc3c(N)ncnc32)[C@H](O)[C@@H]1O (single isomer, unassigned; (+)) [SAM]", "Quantity": "pKi", "Reported Result": "6.60 to 6.70"}

----------
- Method Summary: in vitro
- Condition Notes: t-lymphocyte cultures
# selectivity ratio values compiled below
Quantity: selectivity ratio

{"Molecule": "C[S+](CC[C@H](N)C(=O)O)C[C@H]1O[C@@H](n2cnc3c(N)ncnc32)[C@H](O)[C@@H]1O (single isomer, unassigned) [SAM C1]", "Reported Result": 2.1}
{"Molecule": "C[S+](CC[C@H](N)C(=O)O)C[C@H]1O[C@@H](n2cnc3c(N)ncnc32)[C@H](O)[C@@H]1O (some centres unmarked) [SAM ts HSO4 H2 SO4]", "Reported Result": 2.4}
